Would you kindly list activation for each of these compounds?
target: Bile acid receptor (Homo sapiens) (UniProt Q96RI1); assay: qHTS assay for small molecule agonists of farnesoid X receptor signaling (AID 588527); details: HEK293T FXR-UAS-bla, beta-lactamase ratio, 16 h; stronger effect = higher value;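 note: 0% = vehicle basal and 100% = reference agonist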
Sequence (Q96RI1 whole entry, looked up): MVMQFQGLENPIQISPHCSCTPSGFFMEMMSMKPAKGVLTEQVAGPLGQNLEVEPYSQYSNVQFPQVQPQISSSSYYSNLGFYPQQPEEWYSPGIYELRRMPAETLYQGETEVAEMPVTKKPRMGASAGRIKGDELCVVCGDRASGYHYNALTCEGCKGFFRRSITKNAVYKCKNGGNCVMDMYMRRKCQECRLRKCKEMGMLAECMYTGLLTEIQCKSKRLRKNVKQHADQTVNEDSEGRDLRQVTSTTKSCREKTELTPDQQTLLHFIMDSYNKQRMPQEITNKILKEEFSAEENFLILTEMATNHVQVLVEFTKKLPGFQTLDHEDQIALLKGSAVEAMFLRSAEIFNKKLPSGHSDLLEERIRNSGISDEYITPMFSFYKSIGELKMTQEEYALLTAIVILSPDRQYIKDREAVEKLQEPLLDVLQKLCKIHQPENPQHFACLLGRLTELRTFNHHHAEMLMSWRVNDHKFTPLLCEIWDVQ
Inconclusive results are not listed.
One number for each entry, in %.

For every record below, what is its activation?
1. OCC(Br)CBr (stereo not drawn)
2. C=CC(C)(CCC=C(C)C)OC(C)=O (stereo not drawn)
3. C=CC(=O)OCC
4. C=CCOC(C)=O
5. c1nc[nH]n1
6. CCN(CC)c1ccccc1

Reply |
0.562
-2.23
-1.2
-1.61
0.583
-2.77

Kindly give each listed record's activation.
1. O=CCCCC=O
2. C=C(C)C(=O)OCC1CO1 (stereo not drawn)

Reply |
[-2.56, -3.45]

---

target: Muscarinic acetylcholine receptor M1 (Rattus norvegicus); assay: qHTS Assay for Antagonists of Acetylcholine Muscarinic M1 Receptor: Measurement of IP-One Response (AID 944); conditions: CHO-M1 cells, IP-One HTRF, antagonist mode; series mostly up to 46.1 µM; note: nearly all actives have a fitted effect of over 75% in size
Inconclusive results are not listed. Calls of active or inactive are those of the source. Calls follow the shape of the dose curve; as a rule, active = well fitted inhibition curve with a large enough effect; inconclusive = small, poorly fitted or top-dose-only effect; inactive = no such curve, though single readings can be large or run the other way.
Assign a class; possible classes are active, inactive

INSERT INTO assay_data (compound, assigned_label) VALUES
  ('CCCN(CCC)C(=O)Cc1c(-c2ccc(Cl)cc2)nc2c(Cl)cc(Cl)cn12', 'inactive');

Ask | // outcome(item) with item = `NCC#Cc1ccccc1`
Reply | inactive

Ask | Recorded test outcome, item `CN1CC[C@]2(C)c3cc(O)ccc3N(C)[C@@H]12`
Reply | inactive

Ask | Lab log entry: CS(=N)(=O)CC[C@@H](N)C(=O)O (some centres not stated) — outcome as called in the assay?
Reply | inactive

Ask | Look up the recorded call for `COc1ccc2c(c1OC)C(=O)O[C@H]2[C@H]1c2cc3c(cc2CCN1C)OCO3` in this test.
Reply | inactive

Ask | Given `O=C(OC1CCN(CCCl)CC1)C(c1ccccc1)c1ccccc1` , state the outcome it received in this test.
Reply | active

Ask | I would be grateful if you could indicate the recorded call for `C[C@H]1OC[C@@H](C[N+](C)(C)C)O1` .
Reply | inactive

---

assay: Cytotoxicity counterscreen for inhibitors of SARS-CoV-2 cell entry (AID 1645845); conditions: cell viability (SARS-CoV-2 entry assay cells); series mostly up to 57.1 µM; note: nearly all actives have a fitted effect of over 50% in size
Results filed as inconclusive are left out. The source made the active and inactive calls. Calls come from the whole dose curve.
Mark one answer only. Choices: active, inactive

Please review the entries below; each comes with its answer.
INSERT INTO results (compound, assigned_label) VALUES
  ('CCN1CCCC1CNC(=O)c1cc(S(=O)(=O)CC)ccc1OC (centres undefined)', 'inactive'),
  ('Cc1[nH]c(/C=C2\C(=O)Nc3ccc(F)cc32)c(C)c1C(=O)NCCN1CCCC1', 'inactive'),
  ('COC(=O)C1=C(C#N)NC(C)=C(C(=O)OC(C)C)C1c1cccc([N+](=O)[O-])c1 (centres undefined)', 'inactive'),
  ('CCC(=O)OCC(=O)[C@@]1(OC(=O)CC)[C@@H](C)C[C@H]2[C@@H]3CCC4=CC(=O)C=C[C@]4(C)[C@@]3(F)[C@@H](O)C[C@@]21C', 'inactive');

Ask | Write down the call the test reported for this compound. Item: `Cc1cc(N2CCN([C@@H]3CN[C@H](C(=O)N4CCSC4)C3)CC2)n(-c2ccccc2)n1`
Reply | inactive

Ask | Name the outcome recorded for `CC(=O)[C@]1(N)Cc2c(O)c3c(c(O)c2[C@@H](O[C@H]2C[C@H](O)[C@H](O)CO2)C1)C(=O)c1ccccc1C3=O` in the assay.
Reply | inactive

Ask | Recorded call for `CC[C@H](CC[C@@H](C)[C@H]1CC[C@H]2[C@@H]3CC=C4C[C@@H](O)CC[C@]4(C)[C@H]3CC[C@]12C)C(C)C` ?
Reply | inactive

Ask | Could you please tell me the result logged for `Cn1nnnc1SCC1=C(C(=O)O)N2C(=O)[C@@H](NC(=O)[C@H](OC=O)c3ccccc3)[C@H]2SC1` in this assay?
Reply | inactive

---

test: Cellular Toxicity (caspase-3) SHSY5Y (AID 657); conditions: SH-SY5Y caspase-3 activation, DMSO zero, 10 µM staurosporine = 100%; series mostly up to 91.7 µM;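 note: cells exposed to compound for 16 hours at 37 °C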
Activity calls are given as the source filed them. Calls follow the shape of the dose curve; as a rule, active = well fitted activation curve with a large enough effect; inconclusive = small, poorly fitted or top-dose-only effect; inactive = flat fitted curve, though single readings scatter.
measured-property: outcome

INSERT INTO measurements (compound, observed_measurement) VALUES
  ('COC1=CC(=O)OC(CCc2ccccc2)C1 (stereo not given)', 'inactive'),
  ('C[C@H]1CCCC(=O)CCC/C=C/c2cc(O)cc(O)c2C(=O)O1', 'inactive'),
  ('C/C=C/c1ccc2c(c1)OCO2', 'inactive'),
  ('CCCC(=O)Cl', 'inactive'),
  ('C=C(C)C#N', 'inactive');

Lab note: each compound below needs its outcome filled in.
1. Oc1ccc(Cl)cc1Cl
2. OCC(Br)CBr (stereo not given)

Reply |
["inactive", "inactive"]

# batch: return outcome for each of the 2 compounds below
1. OCC1CO1 (stereo not given)
2. Clc1nc(Cl)nc(Cl)n1

Reply |
inactive
inactive

Batch: outcome for all items listed.
1. Brc1ccc(Oc2cc(Br)c(Br)cc2Br)c(Br)c1
2. ClC(Cl)=C(c1ccc(Cl)cc1)c1ccc(Cl)cc1
3. COc1ccc(C=O)cc1OC
4. O=[N+]([O-])c1cccc2ccccc12
5. COC(=O)NC(=S)Nc1ccccc1NC(=S)NC(=O)OC
6. C=CCc1ccc(OC)cc1
7. Nc1ccc(Br)cc1

Reply |
1. inactive
2. inactive
3. inactive
4. inactive
5. inactive
6. inactive
7. inactive

For every item in the list below, what is its measured outcome?
1. O=C(Cl)/C=C/C(=O)Cl
2. C=CC(N)=O
3. O=C1C(Cl)=C(Cl)C(=O)C(Cl)=C1Cl
4. ClC(Cl)(Cl)c1ccccc1

Reply |
inactive
inactive
inactive
inactive

---

biological target: Rap guanine nucleotide exchange factor 3 (Homo sapiens) (UniProt O95398); assay: Confirmatory qHTS for antagonist of cAMP-regulated guanine nucleotide exchange factor 3 (EPAC1) (AID 1645880); settings: EPAC1 Rap1B-BODIPY-GDP exchange, fluorescence; series mostly up to 115 µM; note: nearly all actives have a fitted effect of over 55% in size
Sequence (O95398 whole entry, looked up): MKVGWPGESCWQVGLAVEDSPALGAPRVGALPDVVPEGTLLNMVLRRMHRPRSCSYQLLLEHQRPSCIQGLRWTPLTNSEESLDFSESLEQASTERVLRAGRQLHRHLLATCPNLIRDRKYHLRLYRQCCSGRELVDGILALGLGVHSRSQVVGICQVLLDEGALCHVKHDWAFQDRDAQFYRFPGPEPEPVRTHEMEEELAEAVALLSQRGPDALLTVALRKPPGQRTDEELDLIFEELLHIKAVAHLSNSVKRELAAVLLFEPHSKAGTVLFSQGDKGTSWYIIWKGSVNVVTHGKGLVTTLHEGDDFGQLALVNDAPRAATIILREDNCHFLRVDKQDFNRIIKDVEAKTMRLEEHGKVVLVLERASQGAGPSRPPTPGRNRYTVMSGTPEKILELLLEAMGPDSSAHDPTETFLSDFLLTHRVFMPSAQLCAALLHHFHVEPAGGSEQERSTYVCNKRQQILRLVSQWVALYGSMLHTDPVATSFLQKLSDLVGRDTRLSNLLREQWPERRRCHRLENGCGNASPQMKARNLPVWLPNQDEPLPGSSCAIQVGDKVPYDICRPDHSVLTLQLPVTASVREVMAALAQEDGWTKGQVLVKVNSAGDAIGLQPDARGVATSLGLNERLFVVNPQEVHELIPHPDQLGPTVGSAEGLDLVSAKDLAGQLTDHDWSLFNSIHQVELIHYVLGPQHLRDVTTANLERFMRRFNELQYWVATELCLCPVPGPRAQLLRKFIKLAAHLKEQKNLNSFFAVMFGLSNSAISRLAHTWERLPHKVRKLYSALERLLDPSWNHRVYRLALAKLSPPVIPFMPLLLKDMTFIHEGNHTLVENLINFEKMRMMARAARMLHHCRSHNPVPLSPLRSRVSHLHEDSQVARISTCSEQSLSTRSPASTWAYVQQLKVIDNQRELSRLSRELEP
Inconclusive results are not listed. Calls of active or inactive are those of the source. The call rests on the fitted dose curve; in most records, active means well fitted inhibition curve with a large enough effect; inconclusive means small, poorly fitted or top-dose-only effect; inactive means no such curve, though single readings can be large or run the other way.
Answer with one of the outcomes true for active, false for inactive

INSERT INTO assay_data (test_smiles, assigned_label) VALUES
  ('O=C(c1ccco1)c1cn(Cc2ccccc2)c2ccccc12', 'false'),
  ('CCN1/C(=C/C=C/C2=[N+](CC)c3ccccc3C2(C)C)C(C)(C)c2ccccc21', 'false'),
  ('Cn1cc(/C=C2\C(=O)NC(=O)N(c3ccccc3)C2=O)c2ccccc21', 'false'),
  ('Cc1ccc(N2C(=O)NC(=O)/C(=C\c3cc(C)n(-c4sc5c(c4C#N)CCCC5)c3C)C2=O)cc1', 'true');

Ask | Status in this test for `CC1=NCCc2c1[nH]c1cc(O)ccc21` ?
Reply | false

---

Can you tell me max response for the items I'm about to list?
assay: qHTS Assay for Lipid Storage Modulators (AID 1519); conditions: Drosophila S3 cells, BODIPY lipid droplet/cell ratio, laser cytometry; measured here: lipid channel max response; cells loaded with oleic acid
Results filed as inconclusive are left out.
One number for each entry, in %.

Sample answers from the record:
INSERT INTO results (molecule, observed_measurement) VALUES
  ('CC(C)(C)C(=O)C(Oc1ccc(Cl)cc1)n1cncn1 (stereo not given)', 16.7),
  ('O=C(O)CCC1NCC2CC1CN1CCCCC21 (stereo not given)', 5.45),
  ('CC[C@]1(c2cccc(O)c2)CCCCN(C)C1', -11.2);

For every item in the list below, what is its measured max response?
1. CCCCCCC(C)OC(=O)COc1ccc(Cl)cc1Cl (stereo not given)
2. CNc1ccc(C(=O)CC(O)CCC(C)C2OC(=O)CC(O)CC(=O)CC(O)CC(O)CC(O)CC(O)CC3(O)CC(O)C(C(=O)OC)C(CC(O[C@@H]4OC(C)C(O)C(N)C4O)/C=C/C=C/C=C/C=C/C=C/C=C/C=C/C2C)O3)cc1 (stereo not given in full)

Reply |
1: 2.82; 2: 27.6

---

experiment: Primary qHTS for inhibitors of MERS-S pseudo-typed particle cell entry (AID 1479149); settings: MERS-S pseudotyped particle entry, luciferase; series mostly up to 57.1 µM; note: nearly all actives have a fitted effect of over 60% in size
Results filed as inconclusive are left out. Active and inactive are the calls of the source. Calls follow the shape of the full dose curve.
Your answer must be one of the following: active, inactive

# example entries with known answers
INSERT INTO assay_data (compound, assigned_label) VALUES
  ('CCOc1nc2cccc(C(=O)OC(C)OC(=O)OC3CCCCC3)c2n1Cc1ccc(-c2ccccc2-c2nn[nH]n2)cc1 (stereo not drawn)', 'inactive'),
  ('NS(=O)(=O)c1cc2c(cc1Cl)NC(Cc1ccccc1)NS2(=O)=O (stereo not drawn)', 'inactive'),
  ('C#C[C@]1(O)CC[C@H]2[C@@H]3CCC4=CC(=O)CC[C@@H]4[C@H]3C(=C)C[C@@]21CC', 'inactive'),
  ('CCOC(=O)COc1ccc2c(=O)cc(-c3ccccc3)oc2c1', 'inactive');

Ask | Test call for this compound, please: `COc1cc(/C=C\C(=O)N2CCN(CC(=O)N3CCCC3)CC2)cc(OC)c1OC`
Reply | inactive

Ask | For `CN1CCN(CCCN2c3ccccc3Sc3ccccc32)CC1` , what call appears in the results of this test?
Reply | active

Ask | How did this test come out for `Oc1cc(O)cc(O)c1` ?
Reply | inactive
